- MEASURED_ON: METTL3/METTL14 (Homo sapiens, UniProt Q86U44)
- Sequence (Q86U44 whole entry, species assumed): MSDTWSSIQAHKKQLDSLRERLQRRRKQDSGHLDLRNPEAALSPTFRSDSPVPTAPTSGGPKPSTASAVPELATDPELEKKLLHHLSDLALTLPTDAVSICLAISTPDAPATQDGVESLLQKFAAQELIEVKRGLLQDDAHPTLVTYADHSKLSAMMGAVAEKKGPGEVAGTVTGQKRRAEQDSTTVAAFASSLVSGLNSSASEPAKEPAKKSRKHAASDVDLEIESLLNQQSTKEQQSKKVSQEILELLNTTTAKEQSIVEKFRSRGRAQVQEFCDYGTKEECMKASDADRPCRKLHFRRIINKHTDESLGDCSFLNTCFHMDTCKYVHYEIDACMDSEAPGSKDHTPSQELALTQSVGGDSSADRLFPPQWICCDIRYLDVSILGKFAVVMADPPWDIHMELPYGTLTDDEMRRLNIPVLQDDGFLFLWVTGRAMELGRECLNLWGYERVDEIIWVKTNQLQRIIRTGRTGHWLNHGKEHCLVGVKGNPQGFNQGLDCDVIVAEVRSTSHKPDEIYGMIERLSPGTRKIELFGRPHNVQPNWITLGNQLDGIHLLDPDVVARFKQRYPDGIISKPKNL
- Sequence (Q9HCE5 whole entry partner, species assumed): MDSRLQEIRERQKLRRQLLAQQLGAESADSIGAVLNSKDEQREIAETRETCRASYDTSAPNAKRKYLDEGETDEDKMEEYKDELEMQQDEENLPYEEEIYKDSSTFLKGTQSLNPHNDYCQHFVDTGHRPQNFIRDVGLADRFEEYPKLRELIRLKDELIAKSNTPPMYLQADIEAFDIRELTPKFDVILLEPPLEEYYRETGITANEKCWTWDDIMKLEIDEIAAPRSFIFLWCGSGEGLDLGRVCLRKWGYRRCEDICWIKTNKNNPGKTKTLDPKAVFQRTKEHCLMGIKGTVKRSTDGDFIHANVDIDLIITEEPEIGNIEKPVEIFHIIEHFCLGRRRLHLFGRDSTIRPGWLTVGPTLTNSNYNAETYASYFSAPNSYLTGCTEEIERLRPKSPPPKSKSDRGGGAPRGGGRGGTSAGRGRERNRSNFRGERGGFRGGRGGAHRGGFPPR
- EXPERIMENT_NOTES: METTL3-14 standard enzyme assay (3H-SAM flashplate)
- APPLIED_CONDITIONS: Table 4; METTL3 biochemical assay
Assign IC50 to each entry below.

So, CN1CCC(N(C[C@H]2CCNC2)C(=O)[C@H]2O[C@@H](n3cc(-c4ccn(C)n4)c4c(N)ncnc43)[C@H](O)[C@@H]2O)CC1 ? Its IC50 was 0.1 to 1 µM

IC50 for Cn1ccc(-c2cn([C@@H]3O[C@H](C(=O)N4CCNCC4)[C@@H](O)[C@H]3O)c3ncnc(N)c23)n1 is 0.1 to 1 µM

Form field IC50, entry CC(CNC(=O)[C@H]1O[C@@H](n2cc(-c3ccn(C)n3)c3c(N)ncnc32)[C@H](O)[C@@H]1O)c1ccccc1 (stereo partly drawn) : 0.1 to 1 µM

Reference source for all entries: patent US20240051985A1
